- assayedTarget: c-Src SH2;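 also: peptide library displayed on the E. coli surface as eCPX fusions, selected cells deep-sequenced, score is each peptide's frequency after selection divided by its frequency in the input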
- experiment: SH2 binding enrichment of the phosphorylated peptide, bacterial display (enrichment ratio); higher = better substrate or ligand; peptides without Tyr show the background
Lab note: anything with SH2 binding enrichment at or over 0.6 counts as met; the rest go in not met.

In [3]: df
Out[3]:
                       querysequence      cat
0            IEKLTYIDKWF [CPS1_Y872]  not met
1  SIKDKYVTVLF [KCNH2_Y611_A614V_YF]      met
2   VFFGSYSCPFG [NKAP_Y104_R106C_YF]  not met
3          PSAELYSNALP [PDGFRB_Y716]      met
4   EEQKKYYNATK [SCN5A_Y1494_M1498T]  not met
